Cited source for all entries: ChEMBL document CHEMBL1155276

Test system: Listeria monocytogenes
test_name: Antibacterial activity against leucocin A-resistant Listeria monocytogenes B73-MR1 after 16 hrs by micro-gel well diffusion assay
Type: functional
Non-standard residues stand in square brackets, D forms with d. Residues, ends and D or L forms follow the SMILES beside them. Orn = NCCC[C@H](N)C(=O)O
quantity_measured: ICmax (µM)
Reply numerically in µM, unit not repeated.

Reference set (6 entries):
{"columns": ["compound", "ICmax [µM]"],
 "data": [
  ["CC(C)C[C@@H]1NC(=O)[C@H](CCCCN)NC(=O)[C@H](C(C)C)NC(=O)[C@H](Cc2ccc(O)cc2)NC(=O)[C@H](CCC(N)=O)NC(=O)[C@H](CC(N)=O)NC(=O)[C@@H](Cc2ccccc2)NC(=O)[C@H](Cc2c[nH]c3ccccc23)NC(=O)[C@@H]2CCCN2C(=O)[C@@H](Cc2ccccc2)NC1=O", 10],
  ["CC(C)C[C@@H]1NC(=O)[C@H](CCCCN)NC(=O)[C@H](C(C)C)NC(=O)[C@H](Cc2ccc(O)cc2)NC(=O)[C@H](CCC(N)=O)NC(=O)[C@H](CC(N)=O)NC(=O)[C@@H](Cc2ccccc2)NC(=O)[C@H](Cc2ccccc2)NC(=O)[C@@H]2CCCN2C(=O)[C@@H](Cc2ccccc2)NC1=O", 16],
  ["CC(C)C[C@@H]1NC(=O)[C@H](CCCN)NC(=O)[C@H](C(C)C)NC(=O)[C@H](Cc2ccc(O)cc2)NC(=O)[C@H](CCC(N)=O)NC(=O)[C@H](CC(N)=O)NC(=O)[C@@H](Cc2ccccc2)NC(=O)[C@H](Cc2c[nH]c3ccccc23)NC(=O)[C@@H]2CCCN2C(=O)[C@@H](Cc2ccccc2)NC1=O", 12],
  ["CC(C)C[C@@H]1NC(=O)[C@H](CCCN)NC(=O)[C@H](C(C)C)NC(=O)[C@@H]2CCCN2C(=O)[C@@H](Cc2ccccc2)NC(=O)[C@H](CC(C)C)NC(=O)[C@H](CCCN)NC(=O)[C@H](C(C)C)NC(=O)[C@@H]2CCCN2C(=O)[C@@H](Cc2ccccc2)NC1=O [GRAMICIDIN S] (cyclo(L[dF]PV[Orn]L[dF]PV[Orn]))", 6.2],
  ["CC(C)C[C@@H]1NC(=O)[C@H](CCCN)NC(=O)[C@H](C(C)C)NC(=O)[C@H](Cc2ccc(O)cc2)NC(=O)[C@H](CCC(N)=O)NC(=O)[C@H](CC(N)=O)NC(=O)[C@@H](Cc2c[nH]c3ccccc23)NC(=O)[C@H](Cc2c[nH]c3ccccc23)NC(=O)[C@@H]2CCCN2C(=O)[C@@H](Cc2ccccc2)NC1=O", 11],
  ["CC(C)C[C@@H]1NC(=O)[C@H](CCCCN)NC(=O)[C@H](C(C)C)NC(=O)[C@H](Cc2ccc(O)cc2)NC(=O)[C@H](CCC(N)=O)NC(=O)[C@H](CC(N)=O)NC(=O)[C@@H](Cc2c[nH]c3ccccc23)NC(=O)[C@H](Cc2c[nH]c3ccccc23)NC(=O)[C@@H]2CCCN2C(=O)[C@@H](Cc2ccccc2)NC1=O", 16]
]}

Now consider a different compound.
Task: What is its ICmax for Listeria monocytogenes? Entry: CC(C)C[C@@H]1NC(=O)[C@H](CCCN)NC(=O)[C@H](C(C)C)NC(=O)[C@H](Cc2ccc(O)cc2)NC(=O)[C@H](CCC(N)=O)NC(=O)[C@H](CC(N)=O)NC(=O)[C@@H](Cc2ccccc2)NC(=O)[C@H](Cc2ccccc2)NC(=O)[C@@H]2CCCN2C(=O)[C@@H](Cc2ccccc2)NC1=O [TYROCIDINE A] (cyclo(F[dF]NQYV[Orn]L[dF]P))
Output: 16
